As shown below, each of these compounds has a reported viability at 72 h, 20 µM value.
Assay: PBMC toxicity by CCK8
Format: cell-based, human
Conditions: human, PBMCs isolated from healthy donors, CCK-8, 20.0 µM, relative to control cells; read-out: PBMC cell viability (%)
Method: And same time, the toxicity of the compounds on the normal human cell line PBMC was also tested by CCK8. […] For the cell proliferation experiments, 1.0 × 10^5 cells were first seeded in the 96-well culture plate and incubated overnight. […] Finally, 10 µL of CCK-8 was added to each well for 1–4 h, and the absorbance values were read at 450 nm in a Microplate Reader (ELx-800, BioTek Instruments, Winooski, VT). […]
Report as a plain number; the unit % is understood.

Request the reported viability at 72 h, 20 µM associated with CC1(C)C(=O)N(C2CCC(=O)NC2=O)C(=O)c2c(N)cccc21 (stereo not drawn) [Compound 12a]
100

Request the reported viability at 72 h, 20 µM associated with Nc1cccc2c1CN(C1CCC(=O)NC1=O)C2=O (stereo not drawn) [Lenalidomide, reference compound]
86

* * *

As shown below, each of these compounds has a reported viability at 72 h, 20 µM value.
Test: PBMC toxicity by CCK8
Format: cell-based, human
Conditions: human, PBMCs isolated from healthy donors, CCK-8, 20.0 µM, relative to control cells; read-out: PBMC cell viability (%)
Report as a plain number; the unit % is understood.

Completed entries (count: 4):
# compound, viability at 72 h, 20 µM (%)
measured = [
    ("Nc1cccc2c1C(=O)N(C1CCC(=O)NC1=O)C(=O)C21CC1 (centres unmarked) [Compound 12b]", 100),
    ("Nc1ccc2c(c1)CC(=O)N(C1CCC(=O)NC1=O)C2=O (centres unmarked) [Compound 10c]", 100),
    ("Nc1ccc2c(c1)C(=O)N(C1CCC(=O)NC1=O)C(=O)C2 (centres unmarked) [Compound 10b]", 98),
    ("O=C1CCC(N2C(=O)Cc3cccc([N+](=O)[O-])c3C2=O)C(=O)N1 (centres unmarked) [Compound 9a]", 94),
]

Continue with the next compound.
Request the reported viability at 72 h, 20 µM associated with O=C1CCC(N2C(=O)Cc3ccccc3C2=O)C(=O)N1 (centres unmarked) [Compound 3a]
99

* * *

Biological target: CRBN (His-tagged CRBN-DDB1 complex) (Homo sapiens)
Sequence (Q96SW2 whole entry): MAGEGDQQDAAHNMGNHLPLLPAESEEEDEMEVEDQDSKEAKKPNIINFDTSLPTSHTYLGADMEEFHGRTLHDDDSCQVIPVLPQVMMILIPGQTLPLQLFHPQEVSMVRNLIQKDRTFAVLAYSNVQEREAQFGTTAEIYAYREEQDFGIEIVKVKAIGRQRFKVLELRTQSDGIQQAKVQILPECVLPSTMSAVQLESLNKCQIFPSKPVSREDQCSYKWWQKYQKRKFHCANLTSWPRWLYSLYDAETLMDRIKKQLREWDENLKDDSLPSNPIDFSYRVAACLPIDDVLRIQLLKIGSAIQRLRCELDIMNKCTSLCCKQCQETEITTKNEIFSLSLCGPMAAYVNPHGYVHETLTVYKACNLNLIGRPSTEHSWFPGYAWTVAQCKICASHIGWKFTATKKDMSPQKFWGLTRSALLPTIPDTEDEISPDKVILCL
Sequence (Q16531 whole entry partner): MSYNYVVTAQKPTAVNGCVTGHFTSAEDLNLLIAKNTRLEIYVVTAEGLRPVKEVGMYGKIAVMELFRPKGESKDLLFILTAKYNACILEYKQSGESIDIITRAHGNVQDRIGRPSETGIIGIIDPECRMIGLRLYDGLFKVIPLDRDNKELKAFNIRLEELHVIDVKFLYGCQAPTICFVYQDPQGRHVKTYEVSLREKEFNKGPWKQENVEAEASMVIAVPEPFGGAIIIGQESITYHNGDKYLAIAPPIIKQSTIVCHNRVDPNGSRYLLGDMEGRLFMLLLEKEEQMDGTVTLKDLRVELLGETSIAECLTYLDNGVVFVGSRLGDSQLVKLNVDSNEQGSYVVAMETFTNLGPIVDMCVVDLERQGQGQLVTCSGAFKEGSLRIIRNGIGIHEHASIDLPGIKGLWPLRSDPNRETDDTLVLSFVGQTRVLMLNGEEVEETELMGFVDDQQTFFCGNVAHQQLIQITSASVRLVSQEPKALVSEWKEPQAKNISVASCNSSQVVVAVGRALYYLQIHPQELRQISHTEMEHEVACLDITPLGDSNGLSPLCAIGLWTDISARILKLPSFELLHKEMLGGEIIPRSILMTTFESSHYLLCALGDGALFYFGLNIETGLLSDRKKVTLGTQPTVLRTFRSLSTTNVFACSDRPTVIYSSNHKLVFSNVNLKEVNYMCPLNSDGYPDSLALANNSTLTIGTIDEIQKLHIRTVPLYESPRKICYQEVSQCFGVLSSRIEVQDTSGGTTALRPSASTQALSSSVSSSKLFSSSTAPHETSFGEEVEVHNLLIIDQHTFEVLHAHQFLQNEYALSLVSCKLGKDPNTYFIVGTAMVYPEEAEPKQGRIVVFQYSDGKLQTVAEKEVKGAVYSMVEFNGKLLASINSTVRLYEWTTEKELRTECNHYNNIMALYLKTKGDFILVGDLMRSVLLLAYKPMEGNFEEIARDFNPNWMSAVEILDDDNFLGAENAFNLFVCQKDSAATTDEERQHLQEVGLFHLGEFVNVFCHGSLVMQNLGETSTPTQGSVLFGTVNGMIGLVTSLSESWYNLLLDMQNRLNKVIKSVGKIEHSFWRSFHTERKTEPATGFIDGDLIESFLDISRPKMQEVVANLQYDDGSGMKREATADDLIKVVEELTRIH
Assay: TR-FRET CRBN binding assay (displacement of Cy5-labeled thalidomide)
readoutName: IC50 (µM)
Report as a plain number; the unit µM is understood.

Request the reported IC50 associated with Nc1cccc2c1C(=O)N(C1CCC(=O)NC1=O)C(=O)C2 (stereo not shown) [Compound 10a]
4.83

* * *

Test: PBMC toxicity by CCK8
Format: cell-based, human
Details: human, PBMCs isolated from healthy donors, CCK-8, 20.0 µM, relative to control cells; read-out: PBMC cell viability (%)
As shown below, each of these compounds has a reported viability at 72 h, 20 µM value.
Report as a plain number; the unit % is understood.

# compound, recordedMeasurement
records = [
    ("COc1ccc2c(c1)C(=O)N(C1CCC(=O)NC1=O)C(=O)C2 (stereo not shown)", 98),
    ("COc1ccc2c(c1)C(=O)N(C1CCC(=O)NC1=O)C(=O)C2(C)C (stereo not shown)", 100),
    ("Nc1cccc2c1CC(=O)N(C1CCC(=O)NC1=O)C2=O (stereo not shown) [Compound 10d]", 99),
]

Continue with the next compound.
Request the reported viability at 72 h, 20 µM associated with Nc1cccc2c1C(=O)N(C1CCC(=O)NC1=O)C(=O)C2 (stereo not shown) [Compound 10a]
94

This collection of values is drawn from paper PMC9225785.
